test system: MCF7 breast; test: NCI tumour cell line growth inhibition, 48 h
Measured TGI, listed per entry for reference.

> print(dat)
                                   molecule  observed.value
1  CC(C)=CCC[C@@H](C)C1=C(O)C(O)C(C)=C2N=C(c3ccccc3)C(=O)OC21 (stereo partly drawn)         > 25 µM
2  O=C1CC(=O)NC(=NN2C(=O)/C(=C/C(=O)c3ccco3)N=C2c2ccccc2)N1        > 100 µM
3  COc1cccc(OC/C(N=Cc2cccnc2)=N/NC(=O)c2ccncc2)c1        > 100 µM
4  Cc1cc(C)nc(NS(=O)(=O)c2ccc(NNc3c4ccccc4nc4c(C(=O)Nc5ccc(S(=O)(=O)Nc6ncccn6)cc5)cccc34)cc2)n1        > 100 µM
5  CCOC(=O)CCC(NC(=O)c1ccc(CNc2nc3ccccc3nc2C(=O)OCC)cc1)C(=O)OCC (stereo not drawn)        > 100 µM

[ask] Find the recorded TGI belonging to COc1ccc(N2C(=O)CC(Cl)C2=O)cc1 (stereo not drawn) and report it.
[reply] > 100 µM

[ask] Request: COc1nc(C)nc2sc3c(c12)CCCC3
[reply] > 100 µM

[ask] Request: CCN(CC)c1cc2c3c(c1)CCCN3CCC2
[reply] > 10 µM

[ask] Request: COc1cc(/C=C(\C#N)c2nc3ccccc3o2)ccc1O
[reply] > 100 µM

[ask] Request: CC1=C2[C@@H](CC1)[C@]1(C)O[C@@](C3CCCCC3)(C[C@H]1OC(=O)CO)[C@H]2OC(=O)/C=C/c1ccccc1
[reply] 13.4 µM

[ask] Request: O=C1c2ccccc2C(O)(C(=O)O)C1(O)CC=C(Cl)Cl (stereo not drawn)
[reply] > 125 µM

[ask] Request: O=S(=O)(NC1=NCCN1C(=S)SN1CCn2c1nsc2=S)c1ccc(Br)cc1
[reply] > 100 µM

[ask] Request: COc1ccc2cc(Oc3ccc(Cl)cc3)c(=O)oc2c1
[reply] > 100 µM

[ask] Request: O=C1c2ccccc2C(=O)N1CCCSc1ccccc1
[reply] > 100 µM

[ask] Request: CCOC(=O)C1=CN/C(=C(/C)C(=O)OC)SC1C(=O)OCC (stereo not drawn)
[reply] > 100 µM

[ask] Request: CCN(CC)CC(O)CNc1ccc(NCC2CO2)c2c1C(=O)c1ccccc1C2=O (stereo not drawn)
[reply] 0.169 µM

[ask] Request: CC(=O)O[C@H]1CC[C@H]2[C@@H]3CCC4C(C)=NNC(=O)C4[C@H]3CC[C@]12C (stereo partly drawn)
[reply] > 100 µM

[ask] Request: Cc1cc([C@H](C#N)c2nc3ccccc3[nH]2)nc(Cl)n1
[reply] > 100 µM

[ask] Request: CC(C)(C)[Si](C)(C)O[C@@H](C(=O)OC1C=CCCC1)[C@@H](NC(=O)c1ccccc1)c1ccccc1 (stereo partly drawn)
[reply] 59.9 µM

[ask] Request: O=c1ccn(C2OC(CO)C(O)C2F)c(=O)[nH]1 (stereo not drawn)
[reply] > 1000 µM

###

Measured TGI, listed per entry for reference.
tested on: SW-620 colon; assay: NCI tumour cell line growth inhibition, 48 h

Answered examples (5):
compound	assay-readout	observed-value
CC(=O)CC(=O)Nc1ccc2ccccc2c1	TGI	> 100 µM
COc1cc(S(=O)(=O)Nc2nc(-c3ccc(N4C(=O)CSC4c4cccs4)cc3)cs2)ccc1Cl (stereo unspecified)	TGI	> 100 µM
CCOC(=O)C(N)C[S][Sn]([CH3])([CH3])[Cl] (stereo unspecified)	TGI	> 100 µM
Cc1ccc2nc(CN3CCCC(O)C3)cc(=O)n2c1 (stereo unspecified)	TGI	> 100 µM
C=CCC(N[C@H](CO)c1ccccc1)c1ccc2ccccc2n1 (stereo partly specified)	TGI	> 100 µM

[ask] Find the recorded TGI belonging to COC(=O)c1cc2c(cc1Cl)SC(N(N(C)C)S(=O)(=O)c1ccc(Br)s1)=NS2(=O)=O and report it.
[reply] 36.3 µM

[ask] Request: CN1CCN(CCCN)CC1
[reply] > 100 µM

[ask] Request: CC(O)c1cccc(NCc2c3ccccc3c(=O)n3c2oc2ccccc23)c1 (stereo unspecified)
[reply] > 100 µM

[ask] Request: COc1cccc(OC/C(N=Cc2cccnc2)=N/NC(=O)c2ccncc2)c1
[reply] > 100 µM

[ask] Request: COc1cc2c[n+](C)c3c4cc5c(cc4ccc3c2cc1OC)OCO5
[reply] 26 µM

[ask] Request: CCN1CCN(C(=O)[C@]23CC[C@@H](C)[C@H](C)[C@@H]2C2=CC[C@@H]4[C@@]5(C)C/C(=C/c6ccncc6)C(=O)C(C)(C)[C@@H]5CC[C@@]4(C)[C@]2(C)CC3)CC1
[reply] 3.7 µM

[ask] Request: Nc1nc(Cl)c(N)c(NCC2(CO)CCC2)n1
[reply] > 100 µM

[ask] Request: Cc1cc(C)nc(NS(=O)(=O)c2ccc(Nc3c4ccccc4nc4c(C(=O)NNCCO)cccc34)cc2)n1
[reply] > 100 µM

[ask] Request: COC(=O)c1c(O)ccc2c1c1c(n2Cc2ccccc2)C(=O)c2ccccc2C1=O
[reply] 46 µM

[ask] Request: NOCC(=O)O
[reply] > 100 µM

[ask] Request: O=C(Nc1ccc(Cl)cc1)C(=O)C(C(=O)c1ccccc1-c1ccccc1)C1OC(=O)c2ccccc21 (stereo unspecified)
[reply] 46.2 µM

[ask] Request: CCOC(=O)C(C(=O)OCC)=C1NC2(c3ccccc3Nc3ccc(C)cc32)C(C#N)S1 (stereo unspecified)
[reply] 30.3 µM

###

tested on: MALME-3M melanoma; experiment: NCI tumour cell line growth inhibition, 48 h
assay-readout: GI50

Answered examples (5):
> print(dat)
                         compound.structure  assay.readout  observed.value
1  CCOC(=O)c1cc(C#N)c(=O)n(/N=C(\C)c2ccncc2)c1O           GI50        > 100 µM
2  O=C(O[C@H]1CN[C@H](C#Cc2cc3ncnc(Nc4ccc5c(ccn5Cc5cc(F)ccc5F)c4)c3s2)C1)N1CCOCC1           GI50         4.06 µM
3  CC1=C2[C@@H](CC1)[C@]1(C)O[C@@](C3CCCCC3)(C[C@H]1OC(=O)CO)[C@H]2OC(=O)/C=C/c1ccccc1           GI50           12 µM
4  COc1cc(OC)c(/C=C/S(=O)(=O)Cc2cnc(OC)c(N)c2)c(OC)c1           GI50        > 100 µM
5  O=c1c2cc(Cl)ccc2oc2ccc(OCCCCCN3CCCCC3)cc12           GI50         6.86 µM

Read the next record carefully.
[ask] Find the recorded GI50 belonging to COc1cc(Nc2nccc(Nc3ccc4c(C)[nH]nc4c3)n2)cc(OC)c1OC and report it.
[reply] 1.4 µM

###

test system: SNB-19 CNS; experiment: NCI tumour cell line growth inhibition, 48 h
assay-readout: TGI

Answered examples (4):
> print(dat)
                                   compound  observed.value
1  O=C(O)c1ccc(P(=O)(O)c2ccc(C(=O)O)cc2Br)c(Br)c1        > 100 µM
2  O=c1c(C=Nc2ccccc2Cl)c(O)n(-c2ccccc2)c(=O)n1-c1ccccc1        > 100 µM
3  COc1cc(OCc2ccc3nc(-c4ccccc4)c(Cl)nc3c2)cc(OC)c1OC        > 100 µM
4  O=c1c(Oc2ccc(F)cc2F)cc2cnc(NC3CCOCC3)nc2n1C1CCS(=O)(=O)CC1         > 25 µM

[ask] Find the recorded TGI belonging to Cn1c([N+](=O)[O-])cnc1/C=C1\Oc2ccccc2C1=O and report it.
[reply] 5.58 µM

[ask] Request: CCOC(=O)NNC(=O)C1CSC(c2ccccc2)N1C(C)=O (stereo unspecified)
[reply] > 100 µM

[ask] Request: O=C1NC(=O)C(Cc2ccccc2)(c2cccnc2)N1 (stereo unspecified)
[reply] > 100 µM

[ask] Request: CCCCc1c2c(nc3c1CCC/C3=C\c1ccccc1)C(=O)CCC2
[reply] 44.2 µM

[ask] Request: NC(=O)C(=Cc1ccc(C(O)P(=O)(O)O)cc1)C(N)=O (stereo unspecified)
[reply] > 100 µM

[ask] Request: COC(=O)CCc1cc(OC)c2c(c1)C(C(=O)OC)C(c1ccc(OC)c(OC)c1)O2 (stereo unspecified)
[reply] > 100 µM

[ask] Request: Cc1csc2nc3c(cnn3C)c(=S)n12
[reply] > 100 µM

[ask] Request: ClCc1cccc(Cn2cnc3c(NC45CC6CC(CC(C6)C4)C5)ncnc32)c1
[reply] 44.2 µM

[ask] Request: CN1C2CCC1CC(CCOC(c1ccc(F)cc1)c1ccc(F)cc1)C2 (stereo unspecified)
[reply] 41.6 µM

[ask] Request: O=[N+]([O-])c1cccc(C2N3CCCCC3[C@@H]3c4[nH]c5ccccc5c4CCN23)c1 (stereo partly specified)
[reply] 45.6 µM

[ask] Request: COC(=O)C(Cc1c[nH]c2ccccc12)N=C1Nc2ccncc2S(=O)(=O)N1c1ccccc1 (stereo unspecified)
[reply] > 100 µM

[ask] Request: O=[N+]([O-])c1cc(Cl)c(Cl)c([N+](=O)[O-])c1Cl
[reply] 22.6 µM

[ask] Request: COc1ccc(/C=N\NC(=O)CN2CCN(c3cc4c(cc3F)c(=O)c(C(=O)N/N=C/c3ccc(OC)c(OC)c3)cn4C3CC3)CC2)cc1OC
[reply] 12.5 µM

Recorded values, source PubChem BioAssay (NCI).
